details: in n-butyl acetate, 318.15 K

| COMPOUND_STRING | solubility (mole fraction) |
| --- | --- |
| O=C(O)c1ccc(CO)cc1 | 0.0132 |

====

settings: in methanol, 318.15 K

| COMPOUND_STRING | solubility (mole fraction) |
| --- | --- |
| O=C(O)c1ccc(CO)cc1 | 0.0682 |

====

conditions: in n-butyl acetate, 293.15 K

| COMPOUND_STRING | solubility (mole fraction) |
| --- | --- |
| O=C(O)c1ccc(CO)cc1 | 0.00508 |

====

settings: in n-butyl acetate, 283.15 K

| COMPOUND_STRING | solubility (mole fraction) |
| --- | --- |
| O=C(O)c1ccc(CO)cc1 | 0.00341 |
